Item-by-item account of TGI
System: SF-295 CNS
Test method notes: NCI tumour cell line growth inhibition, 48 h

compound=CCn1c2ccccc2c2cc(NC(=O)c3c(NCCNCCO)nc(=O)[nH]c3C)ccc21 result="> 100 µM"

Q: Would you mind telling me what TGI value was observed for COC(=O)c1ccccc1C1CN=NC12Cc1cc(C)cc(C)c1C2=O (centres undefined) ?
Result: > 100 µM

Q: Query CCN(CC)CCCCC1CCN(CC(=O)N2c3cc(Cl)ccc3NC(=O)CC2C)CC1 (centres undefined) next
Result: > 100 µM

* * *

Quick list: TGI per entry.
Tested on: NCI-H460 lung
Test method notes: NCI tumour cell line growth inhibition, 48 h

compound=COC(=O)Cc1cc(=O)n2c([nH]c3ccccc32)c1C#N property_label=TGI result="> 100 µM"
compound=N#CSc1ccc(S(N)(=O)=O)cc1 property_label=TGI result="> 100 µM"
compound=CCCCCCNCCCNc1c2ccccc2nc2cccc([N+](=O)[O-])c12 property_label=TGI result="0.0218 µM"

Q: I would be grateful if you could share the reported TGI for CCCCCCCCCCCCCCCCCC[N+](C)(C)Cc1ccc(C[N+](C)(C)CCCCCCCCCCCCCCCCCC)cc1 .
Result: > 100 µM

Q: Same lookup for CCCc1c(C(=O)OCC)[nH]c(C(=O)CCC(=O)c2[nH]c(C(=O)OCC)c(CCC)c2C(=O)OCC)c1C(=O)OCC , please.
Result: > 100 µM

Q: // repeat for COc1cc2c(cc1OCCCN1CCN(c3ncnc4ccccc34)CC1)N=CC1CCCN1C2=O (stereo not given) and report
Result: 0.298 µM

Q: // same read-out, input: O=C(/C=C/c1ccc2c(c1)OCO2)CC(=O)/C=C/c1ccc2c(c1)OCO2
Result: > 100 µM

Q: Next: O=C(Cc1ccccc1)NS(=O)(=O)c1ccccc1
Result: > 100 µM
